Data provenance is the supplement of paper PMC9170038.

Test system: MS2 coat protein
Assay: apparent KD of MS2 coat protein; higher = weaker reporter binding
Settings: Eterna round: R107; input ligand: none
Provide the recorded apparent KD of MS2 coat protein for the entries that follow.
Provide the reading as a plain figure in nM.

## Input Fill in reported apparent KD of MS2 coat protein for this entry: UCACGGCACUGAAGGAGCGAGUUGACAAACAUGAGGAUCACCCAUGUUAUGGGUUGUUAAUCUCAGGUAGGUCGCAGUUGUCGUG [Same State Arginine B GF 21]
## Output 379

## Input Fill in reported apparent KD of MS2 coat protein for this entry: GGUUGGUGUGGAGACAUAUUGAUCACUGAAGGAGCGGGAAUAAACCCAGGUAGGUCGCAGAGAUCCACAUGAGGAUCACCCAUGU [!0.Q]
## Output 40.2

## Input Fill in reported apparent KD of MS2 coat protein for this entry: ACACAUGAGGAUCACCCAUGUGCGCUGGAAGGAGCGCAGAAUCAUGCAGGUAGGUCGCCAGUGCCCUUCGAUAAAGGGAAAAGAG [Erbienes]
## Output 97.4

###

Test system: MS2 coat protein
Experiment: apparent KD of MS2 coat protein; designed switch direction (-1 OFF switch, 1 ON switch): 1; higher = weaker reporter binding
Conditions: input ligand: none
Provide the recorded apparent KD of MS2 coat protein for the entries that follow.
Provide the reading as a plain figure in nM.

## Input Fill in reported apparent KD of MS2 coat protein for this entry: UGUUGUAUUACAGGAUAUCUAUUAGUUGUAUUUAGAGAAGGGUAUUCACAUGAGGAUCACCCAUGUAUAUACGAGGAAGUUGUG [JMF's solution 92] (Eterna round: R96, puzzle: Same State NG 1)
## Output 59.7

## Input Fill in reported apparent KD of MS2 coat protein for this entry: AGGGUCGUGCUAGGAUAUCUAGGAUAUGGACGAGGAUUACCCGAGCAGCAUUAGCGCACCAGAGGAGAGAAGGAGCGUGAUGCG [pwkr ssNG2 2F5 2FMN.10] (Eterna round: R96, puzzle: Same State NG 2)
## Output 63.7

## Input Fill in reported apparent KD of MS2 coat protein for this entry: UGGAUCUAGGCUUGCCUGGGUCCAUGCUGACAUGAGGAUCACCCAUGUGCAUCCUACAAGCUUUUUGCUUGUCUGUC (Eterna round: R96, puzzle: Sensor for hsa-mir-208a)
## Output 530

## Input Fill in reported apparent KD of MS2 coat protein for this entry: AUAAGAAACACAGGAUAUACCGCACUUAACACGGUAGAAGGGUGGGACAUGAGGAUCACCCAUGUGGUCCGGGCGCCGGACCGC [Geenusrior] (Eterna round: R96, puzzle: Same State NG 1)
## Output 329

## Input Fill in reported apparent KD of MS2 coat protein for this entry: GGUAUUGACACAGGAUAUGCUUACGAAACGUAAGCAGAAGGGUGAACAUGAGGAUCACCCAUGUAUGUACCAGGGCGUGAGCCC [JL SSNG1 1.74] (Eterna round: R96, puzzle: Same State NG 1)
## Output 1880

###

Tested on: K4 kissing-loop RNA reporter;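 note: bound reporter read as fluorescence of individual clusters on recovered sequencing chips by microscopy, with normalized cluster intensities fitted with a binding model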
Assay: apparent KD of K4 kissing-loop reporter; higher = weaker reporter binding
Conditions: Eterna round: R107; input ligand: FMN 200 uM
Provide the recorded apparent KD of K4 kissing-loop reporter for the entries that follow.
Provide the reading as a plain figure in nM.

## Input Lab note: K4 kissing-loop RNA reporter assay, enter apparent KD of K4 kissing-loop reporter for "AAGCAGUCACUCUAAGCCAUCGAAGAUGGUCGAGGACCGGUACGGCCGCCACUCGGAGUGAUGUUCCGAAGACUGCAAAAUAAAA" here
## Output 410

## Input Lab note: K4 kissing-loop RNA reporter assay, enter apparent KD of K4 kissing-loop reporter for AAGCAGUCACUCGAAACCAUCGAAGAUGGUCGAGGACCGGUACGGCCGCCACUCGGAGUGAUGUUCCGAAGACUGCAAAAUAAAA [#SwitchBubble 10] here
## Output 313

## Input Lab note: K4 kissing-loop RNA reporter assay, enter apparent KD of K4 kissing-loop reporter for UGUCGUUCUAGUGAUGUUAGGACAGUUAUGAAGGAUAUACACACUCGUAGAAGGUCAGCUGCGGAAUGGCGAUUACGGUGAUUCG [theeternabot_sameState_KL_FMN_A_39] here
## Output 157

## Input Lab note: K4 kissing-loop RNA reporter assay, enter apparent KD of K4 kissing-loop reporter for UGUCAUUGGUCGGCCGCCACUAGAAGGUCAAAGACCAAAGAGUGAUGUUCUUAGACGAAAGUCACUAGGACCGGGACCGAUGACU [TrypBS 7 #SwitchBubble #K4Middle] here
## Output 931

## Input Lab note: K4 kissing-loop RNA reporter assay, enter apparent KD of K4 kissing-loop reporter for GUGGGCAUAGCAGGAUAUCCAUAUUAACAGGAGUCCUCGCCAGUGAUGUUGGAAAGGUACCGGAGUGGAGAAGGGCUCCUACGUA [Anbiratien] here
## Output 594

## Input Lab note: K4 kissing-loop RNA reporter assay, enter apparent KD of K4 kissing-loop reporter for GCGGCCCAGCCGGAUACCAGUGACCCGCUGGGAACCGCGGGCCCAGAGUGAUGUUCGGGACACCCUUGGCAGCCGCCUGGGUCGC [#2 Same State - Theophylline B Attempt #18 (HarryS)] here
## Output 689

## Input Lab note: K4 kissing-loop RNA reporter assay, enter apparent KD of K4 kissing-loop reporter for AGUGGACAUGUCUAGAGUGAUGUUCUGGAUACCAGACACGAAAGUGUCCCUUGGCAGCCGGAGUGAUGUUCUGGAGUUCACUAAA [Omei KL Theo A Exc B v8] here
## Output 612

## Input Lab note: K4 kissing-loop RNA reporter assay, enter apparent KD of K4 kissing-loop reporter for UUUAGAUGAAGUGAUACCAGACUUGAAAGUGAUGUUUUCCAAUAAUUUAAAUUAUUAGCUGUCCCUUGGCAGCACAGUUUAUUUA [JR_ExcTheophyB_Sub008] here
## Output 229

## Input Lab note: K4 kissing-loop RNA reporter assay, enter apparent KD of K4 kissing-loop reporter for AGUUCUUGCCGAAGGAGCGAGGCAGAGUGAUGUUCUGCAAGAGGUCGAAAGACCUCUCUGCCUCAGGUAGGUCGCGGCAUGAACA [Omei KL Arginine B Exc A v3] here
## Output 517

## Input Lab note: K4 kissing-loop RNA reporter assay, enter apparent KD of K4 kissing-loop reporter for GUGGUACAGGCGGCCGCCACUAGUGAUGUUAGUGAUAGAAGAUAUAGUAUAUAUCGGCAUUUAGUUAGGACCGGGCCUGGUGGUG [wwwrcmullin] here
## Output 424

## Input Lab note: K4 kissing-loop RNA reporter assay, enter apparent KD of K4 kissing-loop reporter for GGGAGUGAUGUUCCCACGUUGUCGGUCCUUCGAGGACCGGUACGGCCGCCACUCGCGACCCAGUGAUGUUGGGAUUCACCGUACC [Exclusion Tryptophan A Gf 13] here
## Output 431

## Input Lab note: K4 kissing-loop RNA reporter assay, enter apparent KD of K4 kissing-loop reporter for "UUCUAGCCGAAAGGCUAGUCGGCUUCAGAUACCAGUCGCGAAAGCGACCCUUGGCAGCUGUGUAGUGAUGUUGCAAAGAAAGCCG" here
## Output 556

## Input Lab note: K4 kissing-loop RNA reporter assay, enter apparent KD of K4 kissing-loop reporter for ACAGGAAUCUUUGAUACCAGAACCCGUCUACCUCCAUCCUUGGAGCAUAGUGAUGUUGUGUUCCCUUGGCAGCAAUAGGGCACAU [theeternabot_exclusion_KL_Theo_B_34] here
## Output 711

## Input Lab note: K4 kissing-loop RNA reporter assay, enter apparent KD of K4 kissing-loop reporter for UGCAUGUGAAACAUGUAGGUGCUAGGUGAAGGAGCGAUCGAAAGAUCAGGUAGGUCGCACCUUCCUGAGUGAUGUUCAGGUAAUA [KL-SSArg-A2] here
## Output 60.3

## Input Lab note: K4 kissing-loop RNA reporter assay, enter apparent KD of K4 kissing-loop reporter for AAUUUAUAUUUAUUCUUUAAAUGUUCAGAAGGAGCGUGAAUUAUCACAGGUAGGUCGCUGGGCUAGUGAUGUUGGCUAUAUACUA [whbob_Ex_Arginine_A_2t125] here
## Output 150

## Input Lab note: K4 kissing-loop RNA reporter assay, enter apparent KD of K4 kissing-loop reporter for "AAGCAGUCACUCGAAUCCAUCGAAGAUGGACGAGGACCGGUACGGCCGCCACUCGGAGUGAUGUUCCGAAGACUGCAAAAUAAAA" here
## Output 306

## Input Lab note: K4 kissing-loop RNA reporter assay, enter apparent KD of K4 kissing-loop reporter for GCGUCUUGGUCGGCCGCCACUGAGCCUAGUCACACUCUUGAGUGAUGUUGAAGAUGGUGGACUUGCAGGACCGGGACCACGGACG [theeternabot_sameState_KL_Trp_B_41] here
## Output 946

## Input Lab note: K4 kissing-loop RNA reporter assay, enter apparent KD of K4 kissing-loop reporter for "GCCAGAGCGCGAAGGAGCGCCGUGACAGGUUGCUGCCGUGGGCAGUGAUGUUGCUCAGUCCGGCAGGUAGGUCGCGUGCUCUGGC" here
## Output 422

## Input Lab note: K4 kissing-loop RNA reporter assay, enter apparent KD of K4 kissing-loop reporter for GUACCGCGUGCGGCCGCCACUACAUCAAUUACCUAAGCCUAGUGAUGUUGGGUUUUUGCUACAGGUAGGACCGGGCAGAUGUAUG [theeternabot_sameState_KL_Trp_B_38] here
## Output 292

## Input Lab note: K4 kissing-loop RNA reporter assay, enter apparent KD of K4 kissing-loop reporter for GCCAGUGAUGUUGGCGAACCGACGCAUGCAGAGGAUAUUCGAUCUUGAAGAAGGCUGCAGCGUCAUCAUACGCAGUGAUGUUGCG [Same State FMN A GF 27] here
## Output 172

## Input Lab note: K4 kissing-loop RNA reporter assay, enter apparent KD of K4 kissing-loop reporter for UAUCCUCGCUGAAGGAGCGAGCAUGAAGCAGUGAUGUUCCGAGCGAGUGAUGUUCGCAUAGCUCAGGUAGGUCGCAGUGGGAUUU [Same State Arginie B GF 17] here
## Output 795

## Input Lab note: K4 kissing-loop RNA reporter assay, enter apparent KD of K4 kissing-loop reporter for AUGGUUGUCGUAGGAUAUGUAGGAUAUUCCUAUAGCAGUGAUGUUGCUAAUAUCAAUGGAAGAAGGACAGAAGGACGAUAACCAC [KL-SSFMN-B3 #analogue #DoubleAptamer] here
## Output 113

## Input Lab note: K4 kissing-loop RNA reporter assay, enter apparent KD of K4 kissing-loop reporter for GGUUUAUAGGAGGAUACCAGUACGGAUAAAGUACGUUAAUAGUAGAGUGAUGUUCUAAAGUACCCUUGGCAGCUUAGAGUGAGUU [ExTheophylB.L] here
## Output 105
